- TEST DESCRIPTION: In vivo pharmacokinetics in infected mice (plasma, LC-MS/MS)
- Design: species or system BALB/c mice
- ASSAY CONDITIONS: BALB/c, mouse, plasma, po, 100 mg/kg, Group 8 triplet PA824 50/BDQ 25/EMB 100 mg/kg oral; steady state, infected mice; read-out: Cmax in Triplet
// Cmax lookup, one value per entry
QUANTITY: Cmax (µg/mL)

- MOLECULE: "O=[N+]([O-])c1cn2c(n1)OC[C@@H](OCc1ccc(OC(F)(F)F)cc1)C2 [PA824]"
  QUANTITY: "Cmax"
  EXPERIMENTAL RESULT: 13.3
- MOLECULE: "COc1nc2ccc(Br)cc2cc1[C@@H](c1ccccc1)[C@@](O)(CCN(C)C)c1cccc2ccccc12 [Bedaquiline]"
  QUANTITY: "Cmax"
  EXPERIMENTAL RESULT: 3.1
- MOLECULE: "CC[C@@H](CO)NCCN[C@@H](CC)CO [Ethambutol]"
  QUANTITY: "Cmax"
  EXPERIMENTAL RESULT: 2.7
